Source listed as the nanobody polyreactivity screen of Harvey et al. (2022).

assay: yeast display, Sf9 membrane polyspecificity reagent, FACS + sequencing; frameworks hold sequencing errors
OBSERVED_PROPERTY: polyreactivity (PSR sort gate)

// worked examples, polyreactivity (PSR sort gate) included
biopolymer_sequence=QVQLEESGRGLVQAGGSLRLSCAASGSTCYDYAMGWYRQAPGKERELVAASSRIGARTYYADSVKGRFTISRDNAKNTVYLQMNSQKPEDTAGYYCAATRVYSDYKYWGQGTQVTVSS reading="high polyreactivity"
biopolymer_sequence=QVQLVESGGGLLQAGGSLRLSCAASGFIFSLYAMGWYRQAPGKERELVASINRRGTSTFYADSVKGRFTISLDNAKKTVYLQMNSMKPEDTAVYYCNAYPVAAIRSTGSYDYWGQGTQVTVSS reading="low polyreactivity"
biopolymer_sequence=QDQHVESGVGLVQEGGSLPLSCASSAFIIVKYAMGWYRKAPGKERELVAAITSGGSTSYADSVKGRFTISRDNAKNTVYLQMNRLKPEDTAVYYCAASTTAYAYVNYGYWGQGTQVTVSS reading="low polyreactivity"
biopolymer_sequence=QVQLVESGGGLVQAGGSLRLSCAASGSTFAYNAMGWYRQAPGKERELVAAISWGDGITYYADSVKGRFTISRDNAKNTVYLQMNSLKPEDTAVITRDFGYWGQGTQVTVSS reading="low polyreactivity"
biopolymer_sequence=QVQLVESGGGLVQAGGSLRLSCAASGRIFHWYAMGWYRQAPGKERELVATANTSYADSVKGRFTISRDNAKNTVYLQMNSLKPEDTALYYCATVGPRGRSLGDYWGQGTQVTVSS reading="low polyreactivity"

Request: For `QVQLVESGGGLVQAGGSLRLSCAASGRTFKHYAMGWYRQAPGKERELVAAITSGGSTYYADSVKGRFTISRDNAKNTVYLLMNSLIPEDTAVYYCNKESYFDTYRRYDSWGHGTQVTVSS` , what is its reported polyreactivity (PSR sort gate)?
Response: low polyreactivity

Request: For `QDQLVESGGGLVQARGSLRLRCAASGFIFIFNAMGWYRPAPGKERELVAAIDTSDDSTYYADSVKGRFTISRDNGKNTVYLQLNSLKPEDTAVYYCAAEELSNYEYWGQGTQVTVSS` , what is its reported polyreactivity (PSR sort gate)?
Response: low polyreactivity

###

test: yeast display, Sf9 membrane polyspecificity reagent, FACS + sequencing; frameworks hold sequencing errors
OBSERVED_PROPERTY: polyreactivity (PSR sort gate)

// worked examples, polyreactivity (PSR sort gate) included
biopolymer_sequence=QVQHLESRGGLVQAGGSLRLSCAASGSIFASNAMGWYRPAPGKEREFVAAITWRTDRTYYADSVKGRYTISRDIAKNTVYLQMNSLKPEDTAVYYCNAGRRVYYYSAYYGGGYWGQGTQVTVSS reading="high polyreactivity"
biopolymer_sequence=QVQLVESGGGLVQAGGSLRLSCAASGITFYGYAMGWYRQAPGKERELVARITASGGSTYYADSVKGRFTISRDNAKNTVYLQMKSLKPEVTAVYYCAKDWYRYSRFDYWGQGTQVTVSS reading="high polyreactivity"
biopolymer_sequence=QVQLVESGGGLVQAGGSLRLSCAASGSISWYYAMGWYRQAPGKEWEGVAAISDSGGDTYYADSVKGRFTISRDNAKNTVYLQMNSLKPEDTAVYYCAAQYRGSYRTTYDYWGQGTQVTVSS reading="low polyreactivity"
biopolymer_sequence=QVQLVESGGGLVQAGGSLRLSCAASGSIFEGNAMGWSRQAPGKERELVAAITGRGGSTYYADSVKGRFTISRDNAKNTVYLQMNSLKPEDTAVYYCAARVRRLSSIIYYYWGQGTQVTVSS reading="high polyreactivity"

Request: For `QVQLVESGVGLVKAGGSLRLSCAASGSTFNGYGMGWYRQAPGKERELVAAMSWSGGSTYYADSVKGRFTISRDNAKNTGYLLMNSLKPEDTAVYYCAALTHYGGYGYTYDYWGQGTQVTVSS` , what is its reported polyreactivity (PSR sort gate)?
Response: low polyreactivity
